Give measured log10 of IC50 for each item. Keep answers brief.
- target-of-assay: EGFR(L858R/T790M) (Homo sapiens, UniProt P00533, L858R/T790M)
- protocol-details: EGFR biochemical assay (HTRF), IC50 determination
- Parameters: purchased from Carna (GST-a.a. 669-1210); purchased Carna
- assay-conditions: no pre-incubation; 10 μM ATP; read-out: EGFR (L858R/T790M) IC50 (μM) No pre-incubation
- Sequence (P00533 669-1210 T790M/L858R): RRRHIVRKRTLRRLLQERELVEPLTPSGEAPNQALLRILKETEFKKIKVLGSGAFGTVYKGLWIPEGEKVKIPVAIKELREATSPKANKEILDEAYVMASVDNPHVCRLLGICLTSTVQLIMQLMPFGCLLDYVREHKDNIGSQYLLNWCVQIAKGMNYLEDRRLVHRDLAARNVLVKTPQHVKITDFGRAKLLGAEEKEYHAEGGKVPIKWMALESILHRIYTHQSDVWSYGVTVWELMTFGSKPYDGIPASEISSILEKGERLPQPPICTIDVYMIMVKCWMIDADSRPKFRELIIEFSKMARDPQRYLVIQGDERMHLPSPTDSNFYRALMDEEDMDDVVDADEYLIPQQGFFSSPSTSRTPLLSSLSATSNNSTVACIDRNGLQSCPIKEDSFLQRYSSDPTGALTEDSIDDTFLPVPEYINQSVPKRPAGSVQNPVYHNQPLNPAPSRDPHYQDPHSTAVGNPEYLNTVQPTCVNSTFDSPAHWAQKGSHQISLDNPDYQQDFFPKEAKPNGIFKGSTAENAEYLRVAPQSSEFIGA
Kindly note that the scale is log10 and the underlying IC50 is in µM.

C/C=C/C(=O)Nc1cccc(-n2c(NC(=O)c3cccc(C(F)(F)F)c3)nc3cc(C)ccc32)c1 | -0.44
C=CC(=O)N[C@@H]1CCC[C@H](n2c(NC(=O)c3cccc(C(F)(F)F)c3)nc3cccc(C)c32)C1 (racemic) | -1.41
C=CC(=O)Nc1cccc(-n2c(NC(=O)c3cccc(C(F)(F)F)c3)nc3cccc(C)c32)c1 | -1.24

Field: log10 of IC50. Fill in for each record below.
1. C=CC(=O)Nc1cccc(-n2c(NC(=O)c3cccc(C(F)(F)F)c3)nc3cc(COC)ccc32)c1
2. C=CC(=O)NCCCn1c(NC(=O)c2cccc(C(F)(F)F)c2)nc2cc(C)ccc21
3. C=CC(=O)N[C@H]1CCCC(n2c(NC(=O)c3cccc(C(F)(F)F)c3)nc3cccc(C)c32)C1 (mixture of isomers)
4. C=CC(=O)Nc1cccc(-n2c(NC(=O)c3cccc(-c4ccccc4)c3)nc3cc(C)ccc32)c1

[-1.66, -0.21, -0.74, -2.22]

---

- target-of-assay: EGFR(L858R/T790M) (Homo sapiens, UniProt P00533, L858R/T790M)
- protocol-details: EGFR biochemical assay (HTRF), IC50 determination
- Set-up: purchased from Carna (GST-a.a. 669-1210); purchased Carna
- assay-conditions: no pre-incubation; 10 μM ATP; read-out: EGFR (L858R/T790M) IC50 (μM) No pre-incubation
readout: IC50 (µM)
One number for each entry, in µM.

Sample answers from the record:
C=CC(=O)Nc1cccc(-n2c(NC(=O)c3cccc(C(F)(F)F)c3)nc3cc(CO)ccc32)c1 [Example 3] | 0.028
C=CC(=O)N[C@H]1CC[C@H](n2c(NC(=O)c3cccc(C(F)(F)F)c3)nc3cc(C)ccc32)CC1 [Example 8-9] | 0.22
Cc1cc(C(=O)Nc2nc3cccc(Cl)c3n2-c2cc(NC(=O)/C=C/CN(C)C)ccc2C)ccn1 [Example 2-15] | 20

Field: IC50. Fill in for each record below.
1. C=CC(=O)Nc1cccc(-n2c(NC(=O)c3ccc(F)c(F)c3)nc3cc(C)ccc32)c1 [Example 2-2]
2. C=CC(=O)Nc1cccc(-n2c(NC(=O)c3cccc(C(F)(F)F)c3)nc3cc(COCC)ccc32)c1 [Example 4]
3. C=CC(=O)N[C@@H]1CCCC[C@H]1n1c(NC(=O)c2cccc(C(F)(F)F)c2)nc2cc(C)ccc21 [Example 8-7]
4. C=CC(=O)N[C@H]1CC[C@@H](n2c(NC(=O)c3cccc(C(F)(F)F)c3)nc3cc(C)ccc32)CC1 [Example 8-8]

1: 0.054; 2: 0.071; 3: 2.3; 4: 0.46

---

- target-of-assay: EGFR(L858R/T790M) (Homo sapiens, UniProt P00533, L858R/T790M)
- protocol-details: EGFR biochemical assay (HTRF), IC50 determination
- Set-up: purchased from Carna (GST-a.a. 669-1210); purchased Carna
- assay-conditions: EGFR (L858R/T790M) IC50 (μM) 90 min pre-incubation, 90 min pre-incubation; 10 μM ATP
readout: IC50 (µM)
Answers are plain numbers, in µM.

C=CC(=O)Nc1cccc(-n2c(NC(=O)c3ccc4ccccc4c3)nc3cc(C)ccc32)c1 | 0.013

Field: IC50. Fill in for each record below.
1. C=CC(=O)Nc1ccc(C)c(-n2c(NC(=O)c3ccnc(C)c3)nc3cccc(Cl)c32)c1
2. C=CC(=O)Nc1cccc(-n2c(NC(=O)c3cccc(C(F)(F)F)c3)nc3cc(CN4CCCC4)ccc32)c1
3. C=CC(=O)N[C@@H]1CCC[C@@H](n2c(NC(=O)c3cccc(C(F)(F)F)c3)nc3cc(C)ccc32)C1 (racemic)

1: 1.07; 2: 0.007; 3: 0.051

---

Give measured IC50 for each item. Keep answers brief.
- target-of-assay: EGFR(L858R/T790M) (Homo sapiens, UniProt P00533, L858R/T790M)
- protocol-details: EGFR biochemical assay (HTRF), IC50 determination
- Parameters: purchased from Carna (GST-a.a. 669-1210); purchased Carna
- assay-conditions: EGFR (L858R/T790M) IC50 (μM) 90 min pre-incubation, 90 min pre-incubation; 10 μM ATP
Answers are plain numbers, in µM.

Sample answers from the record:
C=CC(=O)Nc1cccc(-n2c(NC(=O)c3ccc(C)cc3)nc3cc(C)ccc32)c1 | 0.034
C=CC(=O)NCCCn1c(NC(=O)c2cccc(C(F)(F)F)c2)nc2cc(C)ccc21 | 0.046
C=CC(=O)Nc1cccc(-n2c(NC(=O)c3cccc(C)c3)nc3cc(C)ccc32)c1 | 0.012

# next compound below
compound C=CC(=O)N[C@H]1CCCCC1n1c(NC(=O)c2cccc(C(F)(F)F)c2)nc2cc(C)ccc21 (stereo partly shown) , IC50 observed: 0.079

---

- target-of-assay: EGFR(L858R/T790M) (Homo sapiens, UniProt P00533, L858R/T790M)
- protocol-details: EGFR biochemical assay (HTRF), IC50 determination
- Design: purchased from Carna (GST-a.a. 669-1210); purchased Carna
- assay-conditions: no pre-incubation; 10 μM ATP; read-out: EGFR (L858R/T790M) IC50 (μM) No pre-incubation
Hi! Just check whether IC50 is below 0.3 µM. Below gives rule met, equal or above gives rule not met.

C=CC(=O)Nc1cccc(-n2c(NC(=O)c3cccc(C(F)(F)F)c3)nc3cc(C)ccc32)c1 | rule met

Hi there! Is IC50 for `C=CC(=O)Nc1cccc(-n2c(NC(=O)c3cccc(C)c3)nc3cc(C)ccc32)c1` below 0.3 µM, do you know?
rule met

Hi there! Is IC50 for `C=CC(=O)Nc1ccc(-n2c(NC(=O)c3cccc(C(F)(F)F)c3)nc3cc(C)ccc32)cc1` below 0.3 µM, do you know?
rule not met

Hi there! Is IC50 for `C=CC(=O)Nc1cccc(-n2c(NC(=O)c3cccc(F)c3)nc3cc(C)ccc32)c1` below 0.3 µM, do you know?
rule met

Hi there! Is IC50 for `C=CC(=O)Nc1ccccc1-n1c(NC(=O)c2cccc(C(F)(F)F)c2)nc2cc(C)ccc21` below 0.3 µM, do you know?
rule not met

Hi there! Is IC50 for `C=CC(=O)Nc1cccc(-n2c(NC(=O)c3ccc(F)cc3)nc3cc(C)ccc32)c1` below 0.3 µM, do you know?
rule met

Hi there! Is IC50 for C=CC(=O)N[C@@H]1CCC[C@@H](n2c(NC(=O)c3cccc(C(F)(F)F)c3)nc3cc(C)ccc32)C1 (racemic) below 0.3 µM, do you know?
rule met

---

Give measured IC50 for each item. Keep answers brief.
- target-of-assay: EGFR(L858R/T790M) (Homo sapiens, UniProt P00533, L858R/T790M)
- protocol-details: EGFR target modulation in engineered NIH3T3 cell lines (phospho-EGFR AlphaLISA)
- Assay type: cell-based
- Parameters: host or cells: NIH3T3
- assay-conditions: NIH3T3 cells expressing human EGFR L858R/T790M; 3 hours compound
- Sequence (P00533 25-1210 T790M/L858R): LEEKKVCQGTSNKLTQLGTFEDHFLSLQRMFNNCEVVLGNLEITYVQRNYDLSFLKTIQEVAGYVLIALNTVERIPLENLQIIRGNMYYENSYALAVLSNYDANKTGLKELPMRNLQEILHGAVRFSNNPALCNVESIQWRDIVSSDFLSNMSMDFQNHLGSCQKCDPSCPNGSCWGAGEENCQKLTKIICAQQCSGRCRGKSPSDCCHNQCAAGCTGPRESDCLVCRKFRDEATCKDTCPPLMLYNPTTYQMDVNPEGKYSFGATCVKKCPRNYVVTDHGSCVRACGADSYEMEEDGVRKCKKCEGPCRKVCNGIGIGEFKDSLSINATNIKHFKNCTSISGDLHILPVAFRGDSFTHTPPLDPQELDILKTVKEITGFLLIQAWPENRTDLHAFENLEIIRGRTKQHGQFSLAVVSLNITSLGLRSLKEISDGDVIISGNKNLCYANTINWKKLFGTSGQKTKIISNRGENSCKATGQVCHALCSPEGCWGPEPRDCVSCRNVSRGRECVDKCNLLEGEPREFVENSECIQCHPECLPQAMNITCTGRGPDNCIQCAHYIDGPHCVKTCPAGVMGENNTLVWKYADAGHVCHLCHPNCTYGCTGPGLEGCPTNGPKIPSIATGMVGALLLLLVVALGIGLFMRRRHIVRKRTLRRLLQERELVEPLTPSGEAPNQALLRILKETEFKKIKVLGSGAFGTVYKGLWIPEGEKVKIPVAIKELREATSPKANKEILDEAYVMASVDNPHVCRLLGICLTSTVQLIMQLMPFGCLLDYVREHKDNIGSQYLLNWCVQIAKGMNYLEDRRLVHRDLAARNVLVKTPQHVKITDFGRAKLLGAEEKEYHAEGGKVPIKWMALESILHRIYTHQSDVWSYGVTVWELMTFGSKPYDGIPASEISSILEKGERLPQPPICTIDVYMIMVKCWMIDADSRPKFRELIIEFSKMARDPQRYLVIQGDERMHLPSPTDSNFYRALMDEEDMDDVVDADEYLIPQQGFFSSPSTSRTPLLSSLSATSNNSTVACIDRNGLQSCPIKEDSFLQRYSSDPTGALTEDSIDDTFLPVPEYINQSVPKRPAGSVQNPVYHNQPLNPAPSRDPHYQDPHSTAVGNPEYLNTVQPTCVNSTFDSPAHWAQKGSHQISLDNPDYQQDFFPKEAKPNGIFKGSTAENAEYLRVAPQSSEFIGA
Numbers only, in µM.

Sample answers from the record:
C=CC(=O)N[C@@H]1CCC[C@H](n2c(NC(=O)c3cccc(C(F)(F)F)c3)nc3cc(C)ccc32)C1 (racemic) [Example 8-1] | 0.041
C=CC(=O)N[C@@H]1CCC[C@H](n2c(NC(=O)c3cccc(C(F)(F)F)c3)nc3cccc(C)c32)C1 (racemic) | 0.037
C=CC(=O)Nc1cccc(-n2c(NC(=O)c3cccc(C)c3)nc3cc(C)ccc32)c1 | 0.17

# next compound below
Value (IC50, EGFR(L858R/T790M) (Homo sapiens, UniProt P00533, L858R/T790M)) for record `C=CC(=O)Nc1cccc(-n2c(NC(=O)c3ccc(F)cc3)nc3cc(C)ccc32)c1` = 0.037

---

Give measured IC50 for each item. Keep answers brief.
- target-of-assay: EGFR(L858R/T790M) (Homo sapiens, UniProt P00533, L858R/T790M)
- protocol-details: EGFR target modulation in engineered NIH3T3 cell lines (phospho-EGFR AlphaLISA)
- Format: cell-based
- Set-up: host or cells: NIH3T3
- assay-conditions: NIH3T3 cells expressing human EGFR L858R/T790M; 3 hours compound
Answers are plain numbers, in µM.

C=CC(=O)N[C@H]1CCC[C@@H](n2c(NC(=O)c3cccc(C(F)(F)F)c3)nc3cc(C)ccc32)C1 (single isomer, unassigned) [Example 9-2A] | 0.032

Field: IC50. Fill in for each record below.
1. C=CC(=O)Nc1cccc(-n2c(NC(=O)c3ccc(Cl)c(Cl)c3)nc3cc(C)ccc32)c1 [Example 2-4]
2. C=CC(=O)Nc1cccc(-n2c(NC(=O)c3cccc(-c4ccccc4)c3)nc3cc(C)ccc32)c1 [Example 2-7]
3. C=CC(=O)Nc1cccc(-n2c(NC(=O)c3cccc(C(F)(F)F)c3)nc3cc(CO)ccc32)c1 [Example 3]
4. C=CC(=O)Nc1cccc(-n2c(NC(=O)c3cccc(C(F)(F)F)c3)nc3cc(COC)ccc32)c1 [Example 5-1]
5. C=CC(=O)N[C@@H]1CCC[C@H](n2c(NC(=O)c3cccc(C(F)(F)F)c3)nc3cc(C)ccc32)C1 (single isomer, unassigned) [Example 9-2B]
6. C=CC(=O)N(C)c1cccc(-n2c(NC(=O)c3cccc(C(F)(F)F)c3)nc3cc(C)ccc32)c1 [Example 2-10]

1: 0.22; 2: 0.007; 3: 0.036; 4: 0.02; 5: 0.4; 6: 0.11
